Tested on: Saccharomyces cerevisiae;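 further: PSI is a weighted mean of sequencing reads over stability bins, variants kept only with over 10 reads, mCherry proximal and sfGFP distal, peptide attached via GGGS linker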
Test: protein stability index of tFT-peptide fusion (C-terminal peptide) (PSI (0-1 scale)); higher = more stable (slower turnover)
Details: genetic background: doa10 deletion; temperature: 30 C
Outcome: T for protein stability index of at least 0.3; F for anything lower.

Known results for sequences:
| SEQUENCE TEXT | CLASS LABEL |
| --- | --- |
| DAGSSYRFFRFI | T |
| SFSRLWSLFRCL | F |
| VSGITLPFLMFH | T |
| VCSCLVLVFCCC | F |

query: Check this sequence for protein stability index at or above 0.3: AFLLVLFCCVSC
result: F

query: Check this sequence for protein stability index at or above 0.3: WSSWFLWVIFRL
result: T

query: Check this sequence for protein stability index at or above 0.3: CFVRCFVSIRLF
result: F

query: Check this sequence for protein stability index at or above 0.3: RGAVLLPSLWVV
result: T

query: Check this sequence for protein stability index at or above 0.3: RLLSIFKILHVG
result: F
